# test_name: clinical
# assay_conditions: both, human, in vivo, po, 10 mg
measured_endpoint: Vd/F (L)

1. COCCCOc1ccnc(C[S+]([O-])c2nc3ccccc3[nH]2)c1C (stereo not shown) :: 53.9

###

# test_name: clinical
# assay_conditions: both, human, in vivo, po, 10 mg
measured_endpoint: AUC (ng·h/mL)

1) COCCCOc1ccnc(C[S+]([O-])c2nc3ccccc3[nH]2)c1C (stereo not shown) [rabeprazole, Rabeprazole] :: 432

###

# test_name: clinical
# assay_conditions: female, human, in vivo, po, 10 mg
measured_endpoint: Vd/F (L)

1) COCCCOc1ccnc(C[S+]([O-])c2nc3ccccc3[nH]2)c1C (stereo not shown) :: 54.3

###

# test_name: clinical
# assay_conditions: female, human, in vivo, po, 10 mg
measured_endpoint: MRT (h)

1. COCCCOc1ccnc(C[S+]([O-])c2nc3ccccc3[nH]2)c1C (stereo not shown) :: 5.25

###

# test_name: Population pharmacokinetic model (three sequential absorption with Tlag, two-compartment; Phoenix NLME)
# Assay type: in vivo, human
# assay_conditions: both sexes, human, plasma, oral, 10 mg, final population PK model, Estimate; read-out: tvCLc/F (typical value, central compartment clearance) (converted)
measured_endpoint: CL/F (mL/min)

1) COCCCOc1ccnc(C[S+]([O-])c2nc3ccccc3[nH]2)c1C (stereo not shown) [rabeprazole, Rabeprazole] :: 428

###

# test_name: Population pharmacokinetic model (three sequential absorption with Tlag, two-compartment; Phoenix NLME)
# Type: in vivo, human
# assay_conditions: population PK model estimate as quoted in text
# Protocol: Construction and analysis of the population pharmacokinetic model for rabeprazole were performed using a non-linear mixed effects model approach using Phoenix NLME (version 8.4, Pharsight, Certara Inc., Princeton, NJ, USA) software. […] Significance was determined using a Chi-square distribution p value of 0.05 (for forward selection) and 0.01 (for backward elimination) at −2LL and objective function value (OFV). […]
measured_endpoint: Vc/F estimate (L)

1. COCCCOc1ccnc(C[S+]([O-])c2nc3ccccc3[nH]2)c1C (stereo not shown) :: 10.3
